System: fibrin-induced microglia activation
Test: Image-based assay of fibrin-induced microglia activation (HTS and dose response)
Format: cell-based, rat
Settings: Rattus norvegicus, Microglia, primary microglia HTS, fibrin stimulation; increased cell size (>800 μm^2) as marker of activation; read-out: Fibrin % inhibition
property: inhibition at 10 µM
Write your answer as a measured quantity: the number, then the unit.

Task: Look up and state reported inhibition at 10 µM for Cc1ccccc1OCC(O)CO (stereo not shown)
Output: 14%

More entries:
Task: Report inhibition at 10 µM for O=C(c1ccc(OCCN2CCCCC2)cc1)c1c(-c2ccc(O)cc2)sc2cc(O)ccc12
Output: 7%

Task: Dear colleague, please send me the reported inhibition at 10 µM for CC1(C)O[C@@H]2C[C@H]3[C@@H]4C[C@H](F)C5=CC(=O)CC[C@]5(C)[C@H]4[C@@H](O)C[C@]3(C)[C@]2(C(=O)CO)O1 [Flurandrenolide, reference compound] when you can.
Output: 110%

Task: Tell me its inhibition at 10 µM given CCN(CC)CCNc1ccc(CO)c2sc3ccccc3c(=O)c12 [Hycanthone, reference compound] as the entry.
Output: 103%
